Molecular target: human collagen type I (acid soluble, extracted from placenta, Sigma C7774) (human) (UniProt P02452)
Sequence (P02452 162-1218 limits assumed, chain 1 of 2): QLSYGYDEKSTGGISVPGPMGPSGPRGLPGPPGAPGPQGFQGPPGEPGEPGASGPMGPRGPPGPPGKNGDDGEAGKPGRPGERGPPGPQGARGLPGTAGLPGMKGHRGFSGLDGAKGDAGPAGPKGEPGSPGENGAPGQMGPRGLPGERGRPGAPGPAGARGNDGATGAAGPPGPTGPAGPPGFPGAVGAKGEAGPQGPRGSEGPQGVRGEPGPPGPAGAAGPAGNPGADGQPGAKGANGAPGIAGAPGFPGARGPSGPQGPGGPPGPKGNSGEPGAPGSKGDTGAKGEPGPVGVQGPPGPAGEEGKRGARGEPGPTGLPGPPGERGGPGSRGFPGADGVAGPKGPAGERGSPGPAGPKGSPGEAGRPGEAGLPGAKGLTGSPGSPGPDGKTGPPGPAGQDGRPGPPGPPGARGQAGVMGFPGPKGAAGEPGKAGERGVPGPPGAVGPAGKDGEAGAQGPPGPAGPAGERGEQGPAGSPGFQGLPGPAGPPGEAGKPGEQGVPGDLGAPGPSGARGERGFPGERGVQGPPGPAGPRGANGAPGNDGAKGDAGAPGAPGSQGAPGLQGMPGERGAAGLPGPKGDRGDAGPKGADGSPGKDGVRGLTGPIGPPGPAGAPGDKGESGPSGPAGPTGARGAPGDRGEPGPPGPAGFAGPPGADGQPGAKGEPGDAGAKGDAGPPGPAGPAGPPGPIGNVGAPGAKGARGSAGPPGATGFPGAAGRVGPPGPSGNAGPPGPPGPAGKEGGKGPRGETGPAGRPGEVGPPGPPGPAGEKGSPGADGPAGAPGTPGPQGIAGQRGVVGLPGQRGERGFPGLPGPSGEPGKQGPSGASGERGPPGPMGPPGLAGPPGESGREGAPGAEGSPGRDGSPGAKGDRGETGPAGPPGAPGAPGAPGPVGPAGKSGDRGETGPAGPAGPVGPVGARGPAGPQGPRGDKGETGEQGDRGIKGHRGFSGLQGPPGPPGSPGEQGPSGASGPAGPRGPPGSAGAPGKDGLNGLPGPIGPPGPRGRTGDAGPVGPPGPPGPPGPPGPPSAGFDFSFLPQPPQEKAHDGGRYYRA
Sequence (P08123 80-1119 limits assumed, chain 2 of 2, further chain): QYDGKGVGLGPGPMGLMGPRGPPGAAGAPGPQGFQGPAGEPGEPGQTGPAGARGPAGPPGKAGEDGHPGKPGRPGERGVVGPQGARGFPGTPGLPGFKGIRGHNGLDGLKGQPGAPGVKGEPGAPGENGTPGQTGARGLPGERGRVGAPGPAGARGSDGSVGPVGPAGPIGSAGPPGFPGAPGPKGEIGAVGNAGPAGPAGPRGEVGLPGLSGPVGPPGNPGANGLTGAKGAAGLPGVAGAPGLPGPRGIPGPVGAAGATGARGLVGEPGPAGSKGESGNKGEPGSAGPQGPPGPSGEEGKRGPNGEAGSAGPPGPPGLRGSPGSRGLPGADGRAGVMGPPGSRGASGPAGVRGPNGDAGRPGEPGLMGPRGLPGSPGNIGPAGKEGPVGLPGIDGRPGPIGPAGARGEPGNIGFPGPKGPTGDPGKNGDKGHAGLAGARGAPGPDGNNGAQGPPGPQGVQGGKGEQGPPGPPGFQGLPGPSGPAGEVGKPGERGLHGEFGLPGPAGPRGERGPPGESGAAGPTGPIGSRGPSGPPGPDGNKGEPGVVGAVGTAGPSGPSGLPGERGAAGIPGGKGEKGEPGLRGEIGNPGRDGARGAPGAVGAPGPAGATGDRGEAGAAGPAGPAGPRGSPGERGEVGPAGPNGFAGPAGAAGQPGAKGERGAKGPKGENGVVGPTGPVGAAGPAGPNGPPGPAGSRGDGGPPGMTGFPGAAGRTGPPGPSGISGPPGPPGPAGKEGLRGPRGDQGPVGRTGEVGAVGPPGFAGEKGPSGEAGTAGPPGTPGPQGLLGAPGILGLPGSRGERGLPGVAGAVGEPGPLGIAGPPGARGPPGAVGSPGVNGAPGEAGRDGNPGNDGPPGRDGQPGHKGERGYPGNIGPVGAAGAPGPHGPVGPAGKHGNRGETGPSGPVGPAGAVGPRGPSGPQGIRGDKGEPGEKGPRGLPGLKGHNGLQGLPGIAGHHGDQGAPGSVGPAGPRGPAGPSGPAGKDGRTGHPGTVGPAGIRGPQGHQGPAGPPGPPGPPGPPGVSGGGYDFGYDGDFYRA
Assay: dried collagen assay, 5 uM each
reported metric: Human binding (%)

Some binders with known Human binding results, for comparison:
binder: GYKWHCTTYFPHHYCLYG [Compound ID 981]
reported metric: Human binding
value observed: 73

binder: GQWHCTYRFPHHYCLYG [Compound ID 899]
reported metric: Human binding
value observed: 20

I. GQWTCSGDEYTWHCNY [Compound ID 823]
II. DWTCSGDEYTWYCNYE [Compound ID 842]
Ask: Which one would you say has the larger Human binding value: I , or II ? Selection: enter the item's label.
Result: I
(I: 53%, II: 23%)
